test: Inhibition of Trypanosoma cruzi DHODH assessed as inhibition constant measured for 5 mins by spectrophotometry
result type: pKi
# pKi is unitless: minus log10 of the molar concentration; print number only

**Q:** Which pKi value belongs to O=C1NC(=O)C(CCc2ccc3cc(C(=O)O)ccc3c2)C(C(=O)O)N1 (stereo unspecified) ?
**A:** 7.70

###

target: Triosephosphate isomerase, glycosomal (Trypanosoma cruzi); test: Inhibition of Trypanosoma cruzi TIM expressed in Escherichia coli using glyceraldehyde 3-phosphate as substrate preincubated for 2 hrs in presence of NADH/alphaGDPH by spectrophotometry
result type: pIC50
# pIC50 is unitless: minus log10 of the molar concentration; print number only

**Q:** Which pIC50 value belongs to [O-][NH+]1c2ccc(O)cc2[NH+]([O-])c2cc(Cl)c(Cl)cc21 (stereo unspecified) ?
**A:** 4.59

###

biological target: Bifunctional dihydrofolate reductase-thymidylate synthase (Trypanosoma cruzi, UniProt Q27793); assay: Inhibition of Trypanosoma cruzi DHFR-TS in presence of NADPH by spectrophotometry
Sequence (Q27793 whole entry): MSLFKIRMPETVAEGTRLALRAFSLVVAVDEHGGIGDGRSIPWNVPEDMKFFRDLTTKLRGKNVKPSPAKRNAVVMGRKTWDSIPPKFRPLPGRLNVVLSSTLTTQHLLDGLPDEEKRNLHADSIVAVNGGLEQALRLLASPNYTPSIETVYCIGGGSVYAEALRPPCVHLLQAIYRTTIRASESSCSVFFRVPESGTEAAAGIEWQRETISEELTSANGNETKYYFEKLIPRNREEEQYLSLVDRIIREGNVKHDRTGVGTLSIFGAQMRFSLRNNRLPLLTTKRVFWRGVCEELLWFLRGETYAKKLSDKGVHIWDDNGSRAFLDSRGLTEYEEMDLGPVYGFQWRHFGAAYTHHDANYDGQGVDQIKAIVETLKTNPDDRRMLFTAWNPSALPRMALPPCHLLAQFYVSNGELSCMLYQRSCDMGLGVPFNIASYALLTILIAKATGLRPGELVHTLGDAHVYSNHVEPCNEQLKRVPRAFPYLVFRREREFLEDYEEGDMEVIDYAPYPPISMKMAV
result type: IC50 (nM)
Report the figure in nM without appending any unit label.

**Q:** Which IC50 value belongs to CN(Cc1cnc2nc(N)nc(N)c2n1)c1ccc(C(=O)N[C@@H](CCC(=O)O)C(=O)O)cc1 [METHOTREXATE] ?
**A:** 110

###

pIC50 values for the compounds below.
molecular target: Triosephosphate isomerase, glycosomal (Trypanosoma cruzi, UniProt P52270); assay: Inhibition of Trypanosoma cruzi TIM
Sequence (P52270 whole entry): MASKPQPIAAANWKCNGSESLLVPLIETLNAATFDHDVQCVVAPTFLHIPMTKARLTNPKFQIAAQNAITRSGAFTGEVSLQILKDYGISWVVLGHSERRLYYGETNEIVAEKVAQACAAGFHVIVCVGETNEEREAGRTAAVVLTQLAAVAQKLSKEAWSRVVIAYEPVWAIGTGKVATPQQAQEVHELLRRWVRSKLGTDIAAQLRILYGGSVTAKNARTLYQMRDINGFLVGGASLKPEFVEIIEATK
# pIC50 is unitless: minus log10 of the molar concentration; print number only

**Q:** Which pIC50 value belongs to O=C(CSc1nc2ccccc2[nH]1)Nc1ncc([N+](=O)[O-])s1 ?
**A:** 5.52

Now look at this one.
**Q:** Which pIC50 value belongs to O=C(/C=C/C=C/c1ccco1)/C=C/C=C/c1ccco1 ?
**A:** 5.52

###

molecular target: Cruzipain (Trypanosoma cruzi, UniProt P25779); test: Inhibition of Cruzaine derived from epimastigotes of Trypanosoma cruzi Tul2 strain using Z-FR-AMC as substrate assessed as release of 7-amino-4-methylcoumarin by fluorimetry
Sequence (P25779 whole entry): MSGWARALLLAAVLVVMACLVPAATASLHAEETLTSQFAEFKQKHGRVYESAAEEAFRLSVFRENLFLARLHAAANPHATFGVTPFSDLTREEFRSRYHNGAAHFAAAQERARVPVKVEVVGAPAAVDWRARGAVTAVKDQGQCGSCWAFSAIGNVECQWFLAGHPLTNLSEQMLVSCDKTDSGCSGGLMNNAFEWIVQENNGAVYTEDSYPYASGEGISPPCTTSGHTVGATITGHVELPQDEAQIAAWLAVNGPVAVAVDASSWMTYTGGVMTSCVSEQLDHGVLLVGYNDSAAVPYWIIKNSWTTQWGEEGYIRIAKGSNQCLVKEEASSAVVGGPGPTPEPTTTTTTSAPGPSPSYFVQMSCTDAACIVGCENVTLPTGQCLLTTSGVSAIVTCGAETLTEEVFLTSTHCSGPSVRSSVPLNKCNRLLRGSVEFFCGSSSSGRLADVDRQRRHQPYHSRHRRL
result type: pIC50
# pIC50 is unitless: minus log10 of the molar concentration; print number only

**Q:** Which pIC50 value belongs to CC(C)CC(NC(=O)c1ccc(-c2ccccc2)o1)C(=O)NC1(C#N)CC1 (stereo unspecified) ?
**A:** 4.52

###

target: Cruzipain (Trypanosoma cruzi); assay: Inhibition of Trypanosoma cruzi Cruzaine using Z-Phe-Arg-AMC as substrate preincubated for 15 mins measured for 10 mins by […]
result type: pIC50
# pIC50 is unitless: minus log10 of the molar concentration; print number only

**Q:** Which pIC50 value belongs to O=C1/C(=C/C=C/c2ccco2)CCC/C1=C\C=C\c1ccco1 ?
**A:** 4.43

###

IC50 values for the compounds below.
target: Triosephosphate isomerase, glycosomal (Trypanosoma cruzi, UniProt P52270); assay: Inhibition of recombinant Trypanosoma cruzi TIM using glyceraldehyde 3-phosphate as substrate
Report the figure in µM without appending any unit label.

**Q:** Which IC50 value belongs to O=S(=O)(O)CCCSc1nc2ccccc2s1 ?
**A:** 33

More entries:
**Q:** Which IC50 value belongs to Cc1ccc2nc(-c3ccc4nc(-c5ccc(N)cc5)sc4c3)sc2c1S(=O)(=O)O ?
**A:** 8

###

biological target: Sterol 14-alpha demethylase (Trypanosoma cruzi (strain CL Brener)); test: Displacement of [3H]-Eubricol from C-terminal His-tagged full-length Trypanosoma cruzi Tulahuen strain CYP51 expressed in Escherichia coli HMS174(DE3) assessed as dissociation constant preincubated for 5 mins measured after 60 mins by enzymatic assay
Sequence (Q7Z1V1 whole entry): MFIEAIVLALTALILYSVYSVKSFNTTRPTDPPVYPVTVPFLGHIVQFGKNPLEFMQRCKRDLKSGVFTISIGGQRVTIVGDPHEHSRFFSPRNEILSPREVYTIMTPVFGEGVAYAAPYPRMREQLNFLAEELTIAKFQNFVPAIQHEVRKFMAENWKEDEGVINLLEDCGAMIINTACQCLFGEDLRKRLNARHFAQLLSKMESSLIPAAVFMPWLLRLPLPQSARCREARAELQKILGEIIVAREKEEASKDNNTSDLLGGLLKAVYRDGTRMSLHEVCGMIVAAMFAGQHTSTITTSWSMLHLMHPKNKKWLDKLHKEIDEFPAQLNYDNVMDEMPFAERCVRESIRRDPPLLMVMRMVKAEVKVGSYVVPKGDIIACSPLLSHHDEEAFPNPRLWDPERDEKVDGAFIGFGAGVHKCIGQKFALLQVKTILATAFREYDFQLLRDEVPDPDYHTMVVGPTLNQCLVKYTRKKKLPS
result type: Kd (µM)
Report the figure in µM without appending any unit label.

**Q:** Which Kd value belongs to OC(Cn1cnnn1)(c1ccc(F)cc1F)C(F)(F)c1ccc(-c2ccc(OCC(F)(F)F)cn2)cn1 (stereo unspecified) ?
**A:** 0.024
